tested-target: T1, human recombinant CD117 (c-Kit) from Sino Biological (Catalog No. 11996-H08H) (human, UniProt P10721 26-524)
T1 construct: also called soluble antigen
T1 sequence (P10721 26-524 limits assumed): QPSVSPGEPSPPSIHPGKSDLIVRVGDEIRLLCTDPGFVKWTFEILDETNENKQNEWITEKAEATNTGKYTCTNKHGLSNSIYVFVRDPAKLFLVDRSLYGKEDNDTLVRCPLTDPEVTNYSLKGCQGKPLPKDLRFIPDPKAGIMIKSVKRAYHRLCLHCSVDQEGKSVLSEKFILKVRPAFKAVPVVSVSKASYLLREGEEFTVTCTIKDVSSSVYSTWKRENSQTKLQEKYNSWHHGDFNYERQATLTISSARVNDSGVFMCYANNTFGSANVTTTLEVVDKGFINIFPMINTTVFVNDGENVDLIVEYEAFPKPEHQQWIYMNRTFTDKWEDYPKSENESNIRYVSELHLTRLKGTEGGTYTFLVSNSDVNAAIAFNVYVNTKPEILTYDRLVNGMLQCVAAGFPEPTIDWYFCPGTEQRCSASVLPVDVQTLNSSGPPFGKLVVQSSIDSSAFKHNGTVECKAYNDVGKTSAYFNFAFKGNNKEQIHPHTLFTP
experiment: BLI Octet, IgG on anti-human Fc sensor, soluble CD117, 1:1 fit
Overview of recorded kon for various binders
Give the number; M⁻¹ s⁻¹ is assumed, so skip it.

Consider the following illustrative entries.
{"binder": "Zumstein (antibody, V domains shown, IgG; also called VH1/VL2; HC1 LC2) VH: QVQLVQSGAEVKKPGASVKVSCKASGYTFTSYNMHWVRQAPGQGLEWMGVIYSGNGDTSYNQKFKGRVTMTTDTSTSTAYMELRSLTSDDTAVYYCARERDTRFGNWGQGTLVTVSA VL: DIVMTQSPSTLSASVGDRVTITCRASESVDIYGNSFMHWYQQKPGKAPKLLIYLASNLESGVPSRFSGSGSGTEFTLTISSLQPDDFATYYCQQNNEDPYTFGQGTKLEIK", "kon, M⁻¹ s⁻¹": 576000}
{"binder": "Signalkuppe (antibody, V domains shown, IgG; also called VH1/VL3; HC1 LC3) VH: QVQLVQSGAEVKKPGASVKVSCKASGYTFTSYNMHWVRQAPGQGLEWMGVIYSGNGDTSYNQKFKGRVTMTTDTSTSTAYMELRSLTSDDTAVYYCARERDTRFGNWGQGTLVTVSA VL: DIVMTQSPSTLSASVGDRVTITCRASESVDIYGSSFMHWYQQKPGQPPKLLIYLASNLESGVPSRFSGSGSGTEFTLTISSLEADDVATYYCQQNNEDPYTFGGGTKLEIK", "kon, M⁻¹ s⁻¹": 670000}

### Prompt Entry HC2 LC1 (antibody, V domains shown, IgG; also called VH2/VL1) VH: QVQLVESGAEVKKPGASVKLSCKASGYTFTSYNMHWVRQAPGQRLEWMGVIYSGNGDTSYNQKFKGRVTITVDKSASTAYMELSSLRSEDTAVYYCARERDTRFGNWGQGTLVTVSA VL: EIVLTQSPSSLSASVGDRVTITCRASESVDIYGNSFMHWYQQKPGKAPKLLIYLASNLESGVPSRFSGSGSGTDFTLTISSLQPEDFATYYCQQNNEDPYTFGQGTKLEIK has what kon?
### Response 399000

Where do these numbers come from? They come from patent US20260258124A1.
